- systemName: human APJ receptor (Homo sapiens, UniProt P35414)
- Construct: expressed in transfected cells
- Sequence (P35414 1-380): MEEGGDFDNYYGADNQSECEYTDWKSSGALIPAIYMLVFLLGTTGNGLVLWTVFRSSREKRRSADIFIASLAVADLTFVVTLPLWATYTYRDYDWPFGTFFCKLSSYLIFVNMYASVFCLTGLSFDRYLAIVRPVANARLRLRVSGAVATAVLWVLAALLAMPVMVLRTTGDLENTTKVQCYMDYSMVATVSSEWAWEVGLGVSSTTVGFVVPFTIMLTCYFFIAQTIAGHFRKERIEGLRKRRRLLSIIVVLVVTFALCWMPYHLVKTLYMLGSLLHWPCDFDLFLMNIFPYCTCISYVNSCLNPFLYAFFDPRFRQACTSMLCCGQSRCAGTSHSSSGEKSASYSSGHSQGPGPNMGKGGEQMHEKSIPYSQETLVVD
- experimentalProtocol: Intracellular cAMP accumulation assay (APJ hcAMP, HTRF)
- Type: cell-based
- appliedConditions: Table 1; HEK293 cells stably expressing human APJ receptor; inhibition of forskolin-mediated cAMP production; read-out: APJ hcAMP EC50
measurementLabel: EC50

[
  {
    "molecule": "COc1cccc([C@@H](C)NC(=O)c2ccc(-c3cc(Cl)ccc3-c3nc4ccccc4[nH]3)c(C(=O)O)c2)c1",
    "measurementLabel": "EC50",
    "recordedMeasurement": "10 to 100 nM"
  },
  {
    "molecule": "CCC[C@@H](NC(=O)c1ccc(-c2c(Cl)cccc2-c2nc3cc(Cl)cc(Cl)c3[nH]2)c(C(=O)O)c1)c1ccccc1 (atropisomer, axis not shown)",
    "measurementLabel": "EC50",
    "recordedMeasurement": "< 10 nM"
  },
  {
    "molecule": "CCC[C@@H](NC(=O)c1ccc(-c2cc(Cl)ccc2-c2nc3cc(Cl)ccc3[nH]2)c(C(=O)O)c1)c1ccccc1",
    "measurementLabel": "EC50",
    "recordedMeasurement": "< 10 nM"
  },
  {
    "molecule": "CCC[C@@H](NC(=O)c1ccc(-c2cc(Cl)ccc2-c2nc3ccccc3[nH]2)c(C(=O)NOC)c1)c1ccccc1",
    "measurementLabel": "EC50",
    "recordedMeasurement": "10 to 100 nM"
  },
  {
    "molecule": "CCCC(NC(=O)c1ccc(-c2c(Cl)cccc2-c2nc3ccccc3[nH]2)c(C(=O)O)c1)c1cccc(F)c1 (single isomer, unassigned)",
    "measurementLabel": "EC50",
    "recordedMeasurement": "< 10 nM"
  },
  {
    "molecule": "CCC[C@@H](NC(=O)c1ccc(-c2cc(Cl)ccc2-c2nc3cc(C(=O)OC)ccc3[nH]2)c(C(=O)O)c1)c1ccccc1",
    "measurementLabel": "EC50",
    "recordedMeasurement": "< 10 nM"
  },
  {
    "molecule": "CCC[C@H](NC(=O)c1ccc(-c2c(Cl)cccc2-c2nc3cc(OC)c(F)cc3[nH]2)c(C(=O)O)c1)c1ccccc1OC (single isomer, unassigned)",
    "measurementLabel": "EC50",
    "recordedMeasurement": "< 10 nM"
  },
  {
    "molecule": "CCC[C@@H](NC(=O)c1ccc(-c2cc(Cl)ccc2-c2nc3ncccc3[nH]2)c(C(=O)O)c1)c1ccccc1",
    "measurementLabel": "EC50",
    "recordedMeasurement": "10 to 100 nM"
  },
  {
    "molecule": "CCCC(NC(=O)c1ccc(-c2c(Cl)cccc2-c2nc3cc(Cl)c(F)cc3[nH]2)c(C(=O)O)c1)c1c(C)cc(C)cc1C (single isomer, unassigned)",
    "measurementLabel": "EC50",
    "recordedMeasurement": "< 10 nM"
  },
  {
    "molecule": "C[C@@H](NC(=O)c1ccc(-c2cc(Cl)ccc2-c2nc3ccccc3[nH]2)c(C(=O)O)c1)c1ccccc1Cl",
    "measurementLabel": "EC50",
    "recordedMeasurement": "10 to 100 nM"
  },
  {
    "molecule": "CN(C)C[C@@H](NC(=O)c1ccc(-c2cc(Cl)ccc2-c2nc3ccccc3[nH]2)c(C(=O)O)c1)c1ccccc1",
    "measurementLabel": "EC50",
    "recordedMeasurement": "10 to 100 nM"
  },
  {
    "molecule": "CCC[C@@H](NC(=O)c1ccc(-c2c(Cl)cccc2-c2nc3ccc(F)c(F)c3[nH]2)c(C(=O)O)c1)C1CCCCC1 (atropisomer, axis not shown)",
    "measurementLabel": "EC50",
    "recordedMeasurement": "< 10 nM"
  },
  {
    "molecule": "CCC[C@@H](NC(=O)c1ccc(-c2c(Cl)cccc2-c2ncc(-c3ccccc3)[nH]2)c(C(=O)O)c1)c1ccccc1 (atropisomer, axis not shown)",
    "measurementLabel": "EC50",
    "recordedMeasurement": "< 10 nM"
  },
  {
    "molecule": "CCC[C@@H](NC(=O)c1ccc(-c2cc(F)ccc2-c2nc3cc(OC)ccc3[nH]2)c(C(=O)O)c1)c1ccccc1",
    "measurementLabel": "EC50",
    "recordedMeasurement": "< 10 nM"
  },
  {
    "molecule": "CCCC(NC(=O)c1ccc(-c2cc(Cl)ccc2-c2nc3ccccc3[nH]2)c(C(=O)O)c1)c1ccccc1OC (stereo not drawn) [Example 207]",
    "measurementLabel": "EC50",
    "recordedMeasurement": "< 10 nM"
  }
]
